Parameter: normalized growth. Scope: all listed entries.
testName: chemical genetic growth profiling, strain panel (AID 1159580);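 further: tested at 20 µM; growth read once vehicle control cultures reached saturation at 30 °C; 1 = growth at the plate median or of vehicle wells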
experimentalContext: S. cerevisiae deletion strains, growth OD, locus YJL187C, strain SWE1, stronger effect = lower value
The whole screen tested about 5,500 compounds, of which about 2,000 (36%) were called active. About 18% were inconclusive and are not listed. The list shows a part of the results.
Reply briefly: the number, and no unit.

Take a look at these entries with their results.
>  <compound>
CO[C@@]12[C@@H]3NC3CN1C1=C(C(=O)C(N)=C(C)C1=O)[C@@H]2COC(N)=O (stereo partly drawn)

>  <observationType>
normalized growth

>  <numericReadout>
0.98

$$$$
>  <compound>
CNC(=O)O/N=C\C(C)(C)SC

>  <observationType>
normalized growth

>  <numericReadout>
0.998

$$$$
>  <compound>
FC(F)(F)c1ccccc1-n1ccnc1

>  <observationType>
normalized growth

>  <numericReadout>
1

$$$$
>  <compound>
NCCC(=O)N[C@@H](Cc1cnc[nH]1)C(=O)O

>  <observationType>
normalized growth

>  <numericReadout>
1

$$$$

Please report the recorded normalized growth for Nc1ccccc1C(=O)N/N=C\c1cccc2ccccc12 .
0.994

GET /values?readout=normalized growth&item= C=C1SC(=Nc2cccc(OC)c2)N(C(=O)C(c2ccccc2)C2CCCC2)C1(C)C (stereo not drawn)
0.999

For the compound COc1cc(C2OC(c3cc(C)ccc3[N+](=O)[O-])=NN2C(C)=O)cc(OC)c1OC (stereo not drawn) , what normalized growth is on record?
0.98

# normalized growth lookup, item Cc1csc2ccc(Cl)cc12
1.02

What measured normalized growth goes with COc1c(-c2coc3cc4c(cc3c2=O)CC(O)C(C)(C)O4)ccc2c1C=CC(C)(C)O2 (stereo not drawn) ?
0.991

Can you look up the measured normalized growth of COc1cc(N)c(Cl)cc1C(=O)NC1CCN(Cc2ccccc2)CC1 for me?
0.99

Record request: normalized growth value, item CCOC(=O)NC(=O)c1cn(Cc2cccs2)c(=O)[nH]c1=O
1.01

Which normalized growth value belongs to CC(C)CC(N(C)C)C1(c2ccc(Cl)cc2)CCC1 (stereo not drawn) ?
1.01

What does the record list as normalized growth for CC(=O)/C=C\[C@@H]1[C@@]2(C)CCCC(C)(C)C2CC[C@@]1(C)O (stereo partly drawn) ?
0.969

----------
testName: chemical genetic growth profiling, strain panel (AID 1159580)
experimentalContext: S. cerevisiae deletion strains, growth OD, locus YKL085W, strain MDH1 (second series), stronger effect = lower value
About 2,000 (36%) of roughly 5,500 compounds were called active. Another 18% or so got no clear call; they are omitted. Some of the results follow.
The compounds listed here are annotated with their normalized growth.
Just the number, please.

>  <compound>
Nc1ccc(S(=O)(=O)c2ccc(N)cc2)cc1

>  <normalized growth>
1.01

$$$$
>  <compound>
Nc1c2c(nc3ccccc13)CCCC2O (stereo not drawn)

>  <normalized growth>
0.991

$$$$
>  <compound>
C/C=C(/C)C(=O)O[C@H]1CC[C@@]2(C)[C@@H]3CC[C@H]4[C@]5(O)C[C@H](O)[C@@]6(O)[C@@H](CN7C[C@@H](C)CC[C@H]7[C@@]6(C)O)[C@]5(O)C[C@@]42O[C@]13O

>  <normalized growth>
0.979

$$$$

Could you tell me which normalized growth is on file for NC12CC3CC(CC(C3)C1)C2 ?
1.01

For the compound shown here, Nc1ccc(S(=O)(=O)Nc2ccnn2-c2ccccc2)cc1 , give the reported normalized growth.
0.999

Field request: normalized growth | item: C[C@@H]1OC(O[C@H]2[C@H](O)[C@@H](O)[C@H](OC[C@H]3O[C@@H](OC(=O)[C@]45CCC(C)(C)CC4C4=CCC6[C@@]7(C)CC[C@H](OC8OC[C@H](O)[C@H](O)[C@H]8OC8O[C@@H](C)[C@H](O)[C@@H](O)[C@H]8O)[C@@](C)(CO)C7CC[C@@]6(C)[C@]4(C)CC5)[C@H](O)[C@@H](O)[C@@H]3O)O[C@@H]2CO)[C@H](O)[C@H](O)[C@H]1O (stereo partly drawn)
1

Please report the recorded normalized growth for CCOP(=S)(OCC)Oc1cc(C)nc(C(C)C)n1 .
0.988

What does the record list as normalized growth for CCOP(=S)(OCC)Oc1nc(Cl)c(Cl)cc1Cl ?
0.996

// normalized growth lookup, key: Fc1ccc(C(c2ccccc2)(c2ccccc2F)n2ccnc2)cc1 (stereo not drawn)
0.126

Recorded normalized growth of COC(=O)Nc1nc2ccc(C(=O)c3ccccc3)cc2[nH]1 , please.
1.05

normalized growth lookup needed for CC(=O)NCc1c(I)c(NC(C)=O)c(I)c(C(=O)O)c1I , thanks.
1.01

----------
testName: chemical genetic growth profiling, strain panel (AID 1159580)
experimentalContext: S. cerevisiae deletion strains, growth OD, locus YMR263W, strain SAP30
Screen size: about 5,500 compounds; about 2,000 (36%) were called active. Roughly 18% stayed inconclusive and do not appear here. No stated cut-off is given here; in the data, active means normalized growth mostly below about 0.91 (no sharp cut-off); inconclusive means no clear call, values can overlap the other calls; inactive means mostly above about 0.92. The list shows a part of the results.
// classify into active, inactive

Which result was noted for this compound in the test: Nc1ccccc1C(=O)N/N=C\c1cccc2ccccc12
inactive

----------
testName: chemical genetic growth profiling, strain panel (AID 1159580)
experimentalContext: S. cerevisiae deletion strains, growth OD, locus YFR019W, strain FAB1
About 2,000 (36%) of roughly 5,500 compounds were called active. Roughly 18% stayed inconclusive and do not appear here. Rule as the data show it: active = normalized growth mostly below about 0.91 (no sharp cut-off); inconclusive = no clear call, values can overlap the other calls; inactive = mostly above about 0.92. The list shows a part of the results.
Respond only with the outcome that fits, drawn from active, inactive

Examples from the recorded data:
>  <givenSmiles>
O=C(NCCNc1ncc(C(F)(F)F)cc1Cl)C(F)(F)Sc1ccccc1

>  <assignedCategory>
inactive

$$$$
>  <givenSmiles>
O=C(NCCNc1ncc(Cl)cc1C(F)(F)F)C(F)(F)Sc1ccccc1

>  <assignedCategory>
inactive

$$$$
>  <givenSmiles>
Cc1nc(-c2cccnc2)nc(NCc2ccccc2)c1Cl

>  <assignedCategory>
inactive

$$$$
>  <givenSmiles>
COc1ccc2nc3ccccc3c(N)c2c1

>  <assignedCategory>
active

$$$$
>  <givenSmiles>
O=S(=O)(NC(=S)Nc1ccc(Cl)c(Cl)c1)c1ccccc1

>  <assignedCategory>
inactive

$$$$

Shift focus to the following entry.
Please state the recorded outcome for this molecule: C=CCc1c(CCC)nc(-c2ccccn2)[nH]c1=O
inactive

----------
testName: chemical genetic growth profiling, strain panel (AID 1159580);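 further: tested at 20 µM; growth read once vehicle control cultures reached saturation at 30 °C; 1 = growth at the plate median or of vehicle wells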
experimentalContext: S. cerevisiae deletion strains, growth OD, locus YPR141C, strain kar3, stronger effect = lower value
About 2,000 (36%) of roughly 5,500 compounds were called active. Another 18% or so got no clear call; they are omitted. The list shows a part of the results.
Let's look at some molecules and their measured normalized growth.

Illustrative cases are given below, each with its answer.
>  <molecule>
CC(C)=CCCC1(C)C=Cc2c(O)c3c(c(CC=C(C)C)c2O1)OC12C(CC4CC1C(C)(C)OC2(C/C=C(/C)C(=O)O)C4O)C3=O (stereo not drawn)

>  <normalized growth>
0.991 (inactive)

$$$$
>  <molecule>
CCC(C)C(=O)O[C@H]1[C@H](O)C2C(CN3CC(C)CCC3[C@@]2(C)O)C2C[C@]34O[C@]5(O)C(OC(=O)C(C)(O)CC)CC[C@@]3(C)C5C(OC(C)=O)[C@@H](OC(C)=O)C4[C@@]21O (stereo partly drawn)

>  <normalized growth>
0.987 (inactive)

$$$$

Look up normalized growth for this molecule: CC(C)=CCCC1(C)C=Cc2c(O)c3c(c(CC=C(C)C)c2O1)OC12C(=CC4CC1C(C)(C)OC2(C/C=C(/C)C(=O)O)C4O)C3=O (stereo not drawn)
0.954 (inactive)

----------
testName: chemical genetic growth profiling, strain panel (AID 1159580);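 further: tested at 20 µM; growth read once vehicle control cultures reached saturation at 30 °C; 1 = growth at the plate median or of vehicle wells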
experimentalContext: S. cerevisiae deletion strains, growth OD, locus YKL067W, strain YNK1, stronger effect = lower value
Screen size: about 5,500 compounds; about 2,000 (36%) were called active. Inconclusive results (about 18%) are left out. This is one part of the list.
In this section we review reported normalized growth values for a set of compounds.
Write no unit; give the number alone.

Reference set (3 entries):
>  <compound>
O=S(=O)(c1ccc(Cl)cc1)N(Cc1cccnc1)Cc1ccc(Cl)cc1Cl

>  <normalized growth>
0.745

$$$$
>  <compound>
COc1ccc2nc3ccccc3c(N)c2c1

>  <normalized growth>
0.19

$$$$
>  <compound>
O=C(Nc1ccccc1Sc1ccc([N+](=O)[O-])cc1[N+](=O)[O-])C(Cl)(Cl)Cl

>  <normalized growth>
0.982

$$$$

Data request, read-out normalized growth, for O=C(c1cccs1)N(Cc1cccnc1)Cc1ccc(Cl)cc1Cl
0.938

Query (compound): CC(C)Cc1ccc(C(C)C(=O)Nc2nn(C)c3ccccc23)cc1 (stereo not given) ; field requested: normalized growth
0.939

----------
testName: chemical genetic growth profiling, strain panel (AID 1159580);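 further: tested at 20 µM; growth read once vehicle control cultures reached saturation at 30 °C; 1 = growth at the plate median or of vehicle wells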
experimentalContext: S. cerevisiae deletion strains, growth OD, locus YOL078W, strain AVO1, stronger effect = lower value
Hit rate of the full screen: of about 5,500 compounds, about 2,000 (36%) were called active. Not shown: some 18% with an inconclusive outcome. This is one part of the list.
observationType: normalized growth
Just the number.

>  <molecule>
Nc1ccc(Sc2ccccc2)nc1Sc1ccccc1

>  <normalized growth>
0.956

$$$$
>  <molecule>
Cc1oc(C(C)(C)C)cc1-c1cc(N)n(-c2ccc(I)cc2)n1

>  <normalized growth>
1.03

$$$$
>  <molecule>
O=C(NCC(c1ccccc1)c1c[nH]c2ccccc12)c1ccc(C(F)(F)F)cc1 (stereo unspecified)

>  <normalized growth>
0.99

$$$$
>  <molecule>
O=S(=O)(c1ccc(Cl)cc1)N(Cc1cccnc1)Cc1ccc(Cl)cc1Cl

>  <normalized growth>
0.946

$$$$
>  <molecule>
Cc1ccc(S(=O)(=O)n2c(Sc3ccc([N+](=O)[O-])cc3[N+](=O)[O-])nc3cc(C)ccc32)cc1

>  <normalized growth>
0.987

$$$$
>  <molecule>
COc1cccc(NC(=S)NC2CC(C)CC(C)(C)C2)c1 (stereo unspecified)

>  <normalized growth>
0.985

$$$$

State the recorded normalized growth for this entry: CC(C)(C)C(=O)N(Cc1cccnc1)Cc1ccc(Cl)cc1Cl
1

What normalized growth value was documented for this molecule, CCOC(=O)c1cc(CC)sc1NC(=O)c1ccc([N+](=O)[O-])o1 ?
1

# lookup: normalized growth of Brc1ccc2[nH]c3c(c2c1)CCC3
0.942

Recorded normalized growth of N#Cc1c2ccccc2nc2ccccc12 , please.
0.803

What normalized growth value was documented for this molecule, O=C(c1cccs1)N(Cc1cccnc1)Cc1ccc(Cl)cc1Cl ?
0.962
